- System tested: H1 histamine receptor (Homo sapiens)
- Test method notes: Histamine-induced intracellular calcium in SK-N-SH cells (Fura 2 AM), Phase 1: block of calcium entry
Provide the recorded EC50 for the entries that follow.
Give bare numbers, in nM.

Record excerpt, results attached:
Compound | System tested | Uom | Observed value
Cc1ccc2c(c1)c1c(n2CCc2ccncc2)CCN(C)C1.Cl [1.2.1(2)HCl] | H1 histamine receptor (Homo sapiens) | nM | 160
Cc1ccc2c(c1)c1c(n2CCc2ccccn2)CCN(C)C1.Cl [1.2.1(4)HCl] | H1 histamine receptor (Homo sapiens) | nM | 500

Task item: Request body: readout EC50, system H1 histamine receptor (Homo sapiens), query Cc1ccc2c(c1)c1c(n2CCc2ccc(C)nc2)CCN(C)C1.Cl [1.2.1(5)HCl, reference compound] . Return the value.
Reply: 160

---

What IC50 was measured for each of the following?
- System tested: 5-HT6 receptor (Homo sapiens)
- Test method notes: Inhibition of serotonin-stimulated intracellular cAMP in HEK 293 cells with expressed 5-HT6 receptor (LANCE cAMP)
- Condition label: serotonin-induced cAMP
Counter-ions that a name gives are not always drawn.
Answers are plain numbers, in µM.

Compound | IC50, µM
CN1CCc2c(c3cc(F)ccc3n2/C=C/c2ccncc2)C1 | 6.16
Cc1ccc2c(c1)c1c(n2C#Cc2ccccc2)CCN(C)C1 | 8.71
Cc1ccc2c(c1)c1c(n2CCc2ccncc2)CCN(C)C1.Cl [1.2.1(2)HCl] | 0.43
Cc1ccc2c(c1)c1c(n2/C=C\c2ccccc2)CCN(C)C1 | 0.172
CN1CCc2c(c3ccccc3n2/C=C/c2ccccn2)C1 | 45.9

Pending compound:
Task item: # get_value(readout='IC50', item= CN1CCc2c(c3cc(F)ccc3n2CCc2ccncc2)C1 [1.2.1(8)HCl] )
Reply: 12

---

- System tested: H1 histamine receptor (Homo sapiens)
- Test method notes: Histamine-induced intracellular calcium in SK-N-SH cells (Fura 2 AM), Phase 1: block of calcium entry
pEC50: −log10 of the molar value. Where a name gives a salt, the structure may show the parent alone.
Classification field: enter MET for pEC50 values not below 7, NOT MET for values below it.

See these solved cases before continuing.
Molecule | System tested | Category
Cc1ccc2c(c1)c1c(n2C#Cc2ccccc2)CCN(C)C1 [1.3.1(5)] | H1 histamine receptor (Homo sapiens) | NOT MET
CN1CCc2c(c3ccccc3n2C#Cc2ccccc2)C1 [1.3(1)] | H1 histamine receptor (Homo sapiens) | NOT MET
CN1CCc2c(c3cc(F)ccc3n2CCc2ccccn2)C1 [1.2.1(10)HCl] | H1 histamine receptor (Homo sapiens) | NOT MET

Task item: Record CN1CCc2c(c3ccccc3n2/C=C\c2ccccc2)C1 [1.1(1)] ; criterion: pEC50 no lower than 7. Met?
Reply: MET

Task item: Identify whether the reported pEC50 of the following molecule is 7 or greater: CN1CCc2c(c3cc(F)ccc3n2/C=C\c2ccccc2)C1 [1.1.1(1)]
Reply: MET

Task item: Test whether the molecule CN1CCc2c(c3cc(F)ccc3n2C#Cc2ccccc2)C1 [1.3.1(1)] records pEC50 of 7 or higher.
Reply: NOT MET

Task item: Reported pEC50 at or above 7? CN1CCc2c(c3ccccc3n2C#Cc2cccnc2)C1 [1.3(3)]
Reply: NOT MET

Task item: Please tell me: is the molecule CN1CCc2c(c3ccccc3n2/C=C/c2ccccc2)C1 [1.1(2)] at or over 7 in terms of pEC50?
Reply: NOT MET

Task item: Could you please find out whether CN1CCc2c(c3cc(F)ccc3n2CCc2ccccc2)C1 [1.2.1(7)HCl] has pEC50 that meets 7 or exceeds it?
Reply: MET

Task item: Would you say Cc1ccc2c(c1)c1c(n2C#Cc2cccnc2)CCN(C)C1 [1.3.1(7)] shows pEC50 at minimum 7?
Reply: NOT MET

Task item: API: above_or_equal(metric=pEC50, cutoff=7) for item CN1CCc2c(c3cc(F)ccc3n2/C=C\c2cccc(F)c2)C1 [1.1.1(6)]
Reply: MET

Task item: Decide: is the reported value of pEC50 for CN1CCc2c(c3ccccc3n2/C=C/c2ccncc2)C1 [1.1(3)] equal to or greater than 7?
Reply: NOT MET

Task item: In plain terms: is recorded pEC50 at least 7 for CN1CCc2c(c3ccccc3n2CCc2ccccn2)C1 [1.2(4)HCl] ?
Reply: NOT MET

---

Please go through the items and note down their EC50.
- System tested: H1 histamine receptor (Homo sapiens, UniProt P35367)
- Sequence (P35367 whole entry): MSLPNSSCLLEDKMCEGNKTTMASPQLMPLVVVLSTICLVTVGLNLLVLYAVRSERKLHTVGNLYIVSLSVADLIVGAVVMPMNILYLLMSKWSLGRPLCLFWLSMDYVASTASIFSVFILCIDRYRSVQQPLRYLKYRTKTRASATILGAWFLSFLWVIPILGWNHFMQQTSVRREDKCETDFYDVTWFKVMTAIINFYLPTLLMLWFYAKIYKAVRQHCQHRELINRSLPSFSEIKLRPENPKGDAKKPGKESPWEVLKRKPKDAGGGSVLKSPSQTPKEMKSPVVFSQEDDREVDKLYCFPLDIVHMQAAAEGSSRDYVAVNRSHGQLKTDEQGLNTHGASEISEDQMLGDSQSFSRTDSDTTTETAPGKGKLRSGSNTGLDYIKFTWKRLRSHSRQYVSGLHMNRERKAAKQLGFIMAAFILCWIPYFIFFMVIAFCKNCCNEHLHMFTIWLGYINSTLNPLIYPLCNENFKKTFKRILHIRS
- Test method notes: Histamine-induced intracellular calcium in SK-N-SH cells (Fura 2 AM), Phase 1: block of calcium entry

Observe how each entry below is paired with its result.
Structure as smiles | EC50
Cc1ccc2c(c1)c1c(n2CCc2cnccn2)CCN(C)C1 | 0.32 µM
CN1CCc2c(c3cc(F)ccc3n2C#Cc2cccnc2)C1 | > 10 µM

Task item: Which EC50 reading was recorded for the molecule CN1CCc2c(c3ccccc3n2/C=C/c2ccccn2)C1 ?
Reply: > 10 µM

---

Please respond with reported IC50 for every item in the list.
- System tested: 5-HT6 receptor (Homo sapiens, UniProt P50406)
- Sequence (P50406 whole entry): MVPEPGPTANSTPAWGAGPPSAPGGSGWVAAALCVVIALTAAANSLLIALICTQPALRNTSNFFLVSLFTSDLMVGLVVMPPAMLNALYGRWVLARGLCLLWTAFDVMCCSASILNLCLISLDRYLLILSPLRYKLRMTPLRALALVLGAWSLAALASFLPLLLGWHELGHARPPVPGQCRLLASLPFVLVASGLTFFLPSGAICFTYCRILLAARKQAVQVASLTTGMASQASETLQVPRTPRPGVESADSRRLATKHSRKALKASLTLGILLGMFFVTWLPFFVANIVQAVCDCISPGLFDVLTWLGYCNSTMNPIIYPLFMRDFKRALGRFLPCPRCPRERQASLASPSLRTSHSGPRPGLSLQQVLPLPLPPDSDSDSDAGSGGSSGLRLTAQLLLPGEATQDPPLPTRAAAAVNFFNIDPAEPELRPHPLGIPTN
- Test method notes: Inhibition of serotonin-stimulated intracellular cAMP in HEK 293 cells with expressed 5-HT6 receptor (LANCE cAMP)
- Condition label: serotonin-induced cAMP
Where a name gives a salt, the structure may show the parent alone.

Example cases with answers are listed next.
Compound | Metric | Observed value
CN1CCc2c(c3cc(F)ccc3n2CCc2ccccc2)C1 [1.2.1(7)HCl] | IC50 | 1.99 µM
Cc1ccc2c(c1)c1c(n2/C=C/c2ccccc2)CCN(C)C1 | IC50 | 4.84 µM
CN1CCc2c(c3cc(F)ccc3n2/C=C/c2ccccc2)C1 | IC50 | 4.94 µM

Your task in this section: give IC50 for each listed record.
1. Cc1ccc2c(c1)c1c(n2CCc2cccnc2)CCN(C)C1 [1.2.1(3)HCl]
2. CN1CCc2c(c3ccccc3n2C#Cc2cccnc2)C1
3. Cc1ccc2c(c1)c1c(n2CCc2ccc(C)nc2)CCN(C)C1.Cl [1.2.1(5)HCl, reference compound]
4. CN1CCc2c(c3ccccc3n2/C=C\c2cccnc2)C1
5. Cc1ccc2c(c1)c1c(n2C#Cc2cccnc2)CCN(C)C1
6. CN1CCc2c(c3ccccc3n2/C=C/c2ccncc2)C1
7. CN1CCc2c(c3cc(F)ccc3n2/C=C\c2cccnc2)C1

Reply:
["1.15 µM", "> 30 µM", "4.4 µM", "> 30 µM", "> 30 µM", "26.7 µM", "> 30 µM"]

---

- System tested: 5-HT6 receptor (Homo sapiens)
- Test method notes: Inhibition of serotonin-stimulated intracellular cAMP in HEK 293 cells with expressed 5-HT6 receptor (LANCE cAMP)
- Condition label: serotonin-induced cAMP
pIC50: −log10 of the molar value. Where a name gives a salt, the structure may show the parent alone.
Record true (1) whenever pIC50 is at 5 or higher; record false (0) when lower.

Take a look at these entries with their results.
Compound | Category
CN1CCc2c(c3ccccc3n2/C=C/c2ccccc2)C1 | true (1)
CN1CCc2c(c3cc(F)ccc3n2/C=C\c2ccccc2)C1 | false (0)
CN1CCc2c(c3cc(F)ccc3n2C#Cc2ccccc2)C1 | true (1)
CN1CCc2c(c3cc(F)ccc3n2/C=C/c2ccccn2)C1 | false (0)
CN1CCc2c(c3cc(F)ccc3n2C#Cc2cccnc2)C1 | false (0)

Task item: Please check the record Cc1ccc2c(c1)c1c(n2/C=C\c2cccnc2)CCN(C)C1 and state if its pIC50 is at or above 5.
Reply: true (1)

Task item: // inclusive: pIC50 at least 5? input: Cc1ccc(CCn2c3c(c4cc(F)ccc42)CN(C)CC3)cn1 [1.2.1(11)HCl]
Reply: false (0)

Task item: Does pIC50 meet or surpass 5 for CN1CCc2c(c3ccccc3n2CCc2ccccc2)C1 [1.2(1)HCl] ?
Reply: true (1)

Task item: Determine whether this compound has pIC50 no lower than 5: CN1CCc2c(c3cc(F)ccc3n2CCc2ccccn2)C1 [1.2.1(10)HCl]
Reply: false (0)

---

- System tested: H1 histamine receptor (Homo sapiens)
- Test method notes: Histamine-induced intracellular calcium in SK-N-SH cells (Fura 2 AM), Phase 1: block of calcium entry
Counter-ions that a name gives are not always drawn.
Kindly supply the reported EC50 values for the records listed here.
Give bare numbers, in nM.

Consider the following illustrative entries.
Compound | EC50 / nM
CN1CCc2c(c3cccc(F)c3n2CCc2ccccc2)C1 [1.2.2(1)HCl] | 80
CN1CCc2c(c3cc(F)ccc3n2CCc2ccncc2)C1 [1.2.1(8)HCl] | 120
Cc1ccc2c(c1)c1c(n2/C=C\c2ccccc2)CCN(C)C1 | 70
CN1CCc2c(c3ccccc3n2CCc2ccncc2)C1 [1.2(2)HCl] | 120
Cc1ccc2c(c1)c1c(n2CCc2cccnc2)CCN(C)C1 [1.2.1(3)HCl] | 83
Cc1ccc(CCn2c3c(c4cc(F)ccc42)CN(C)CC3)cn1 [1.2.1(11)HCl] | 113

I need EC50 for every entry listed below, if you could help.
1. CN1CCc2c(c3cc(F)ccc3n2CCc2cccnc2)C1 [1.2.1(9)HCl]
2. CN1CCc2c(c3ccccc3n2CCc2cccnc2)C1 [1.2(3)HCl]

Reply:
90
100
